# Study System: HIV-1 YU-2 gp120 (HIV-1 (YU-2), UniProt P35961)
# Method: SPR
Hi! Could you tag entries with koff below 0.0002 s⁻¹ as 1, and those at or above as -1? Much appreciated.

As a guide, the following entries are already answered.
# Binder, Answer Label
data = [
    ("Fab m18 F99Y (HCDR3) (Fab, V domains shown) VH: VQLLESGPGVVKPSETLSLTCTVSGASVNNYYWTWVRQPPGKGLEWIGNVYDSGDTNYNPSLSSRLSLSMDTSKNQFSLRLSSVTAADTATYYCARYHRHYIRGPLSFDYWGRGTLVTVSS VL: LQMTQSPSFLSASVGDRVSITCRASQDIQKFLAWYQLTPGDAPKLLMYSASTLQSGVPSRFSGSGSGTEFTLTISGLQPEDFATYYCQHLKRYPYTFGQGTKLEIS", 1),
    ("Fab m18 K31A (LCDR1) (Fab, V domains shown) VH: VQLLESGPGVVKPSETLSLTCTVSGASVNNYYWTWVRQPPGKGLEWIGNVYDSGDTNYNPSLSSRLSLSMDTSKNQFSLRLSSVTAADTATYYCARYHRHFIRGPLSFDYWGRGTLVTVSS VL: LQMTQSPSFLSASVGDRVSITCRASQDIQAFLAWYQLTPGDAPKLLMYSASTLQSGVPSRFSGSGSGTEFTLTISGLQPEDFATYYCQHLKRYPYTFGQGTKLEIS", 1),
    ("Fab m18 S65A (HCDR2) (Fab, V domains shown) VH: VQLLESGPGVVKPSETLSLTCTVSGASVNNYYWTWVRQPPGKGLEWIGNVYDSGDTNYNPSLSARLSLSMDTSKNQFSLRLSSVTAADTATYYCARYHRHFIRGPLSFDYWGRGTLVTVSS VL: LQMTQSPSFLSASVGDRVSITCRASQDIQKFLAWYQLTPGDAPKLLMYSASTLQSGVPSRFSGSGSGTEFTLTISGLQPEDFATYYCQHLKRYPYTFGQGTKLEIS", -1),
]

Prompt: Given Fab m18 T57A (HCDR2) (Fab, V domains shown) VH: VQLLESGPGVVKPSETLSLTCTVSGASVNNYYWTWVRQPPGKGLEWIGNVYDSGDANYNPSLSSRLSLSMDTSKNQFSLRLSSVTAADTATYYCARYHRHFIRGPLSFDYWGRGTLVTVSS VL: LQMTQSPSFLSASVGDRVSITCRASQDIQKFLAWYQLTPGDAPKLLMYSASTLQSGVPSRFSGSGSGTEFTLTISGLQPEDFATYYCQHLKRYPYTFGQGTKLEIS , is recorded koff strictly lower than 0.0002 s⁻¹?
Response: -1

Prompt: Determine whether this binder shows koff lower than 0.0002 s⁻¹ (ties excluded): Fab m18 Y33F (HCDR1) (Fab, V domains shown) VH: VQLLESGPGVVKPSETLSLTCTVSGASVNNYFWTWVRQPPGKGLEWIGNVYDSGDTNYNPSLSSRLSLSMDTSKNQFSLRLSSVTAADTATYYCARYHRHFIRGPLSFDYWGRGTLVTVSS VL: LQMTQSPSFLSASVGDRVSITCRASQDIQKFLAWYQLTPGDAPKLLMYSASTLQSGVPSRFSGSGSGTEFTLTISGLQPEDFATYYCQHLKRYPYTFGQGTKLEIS
Response: -1

Prompt: Consider Fab m18 R93A (LCDR3) (Fab, V domains shown) VH: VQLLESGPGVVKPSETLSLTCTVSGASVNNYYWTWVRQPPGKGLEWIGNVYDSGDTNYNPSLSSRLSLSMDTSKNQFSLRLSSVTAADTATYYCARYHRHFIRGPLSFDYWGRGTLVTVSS VL: LQMTQSPSFLSASVGDRVSITCRASQDIQKFLAWYQLTPGDAPKLLMYSASTLQSGVPSRFSGSGSGTEFTLTISGLQPEDFATYYCQHLKAYPYTFGQGTKLEIS . Does its koff lie strictly below 0.0002 s⁻¹?
Response: 1

Prompt: Given the entry Fab m18 D56A (HCDR2) (Fab, V domains shown) VH: VQLLESGPGVVKPSETLSLTCTVSGASVNNYYWTWVRQPPGKGLEWIGNVYDSGATNYNPSLSSRLSLSMDTSKNQFSLRLSSVTAADTATYYCARYHRHFIRGPLSFDYWGRGTLVTVSS VL: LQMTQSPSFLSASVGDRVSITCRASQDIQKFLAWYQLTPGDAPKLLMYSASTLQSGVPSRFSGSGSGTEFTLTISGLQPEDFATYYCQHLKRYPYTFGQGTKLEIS , would its reported koff be below 0.0002 s⁻¹?
Response: -1

Prompt: Check if koff falls below 0.0002 s⁻¹ for Fab m18 (wild type) (Fab, V domains shown) VH: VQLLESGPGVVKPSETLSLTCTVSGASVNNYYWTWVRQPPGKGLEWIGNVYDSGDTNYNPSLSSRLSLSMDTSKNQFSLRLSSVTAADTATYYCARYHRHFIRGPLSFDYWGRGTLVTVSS VL: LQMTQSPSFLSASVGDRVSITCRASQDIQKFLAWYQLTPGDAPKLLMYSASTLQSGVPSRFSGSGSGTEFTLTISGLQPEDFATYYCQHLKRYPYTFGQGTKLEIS .
Response: 1

Prompt: Lab log: compare recorded koff with 0.0002 s⁻¹; is it strictly lower for Fab m18 H96A (HCDR3) (Fab, V domains shown) VH: VQLLESGPGVVKPSETLSLTCTVSGASVNNYYWTWVRQPPGKGLEWIGNVYDSGDTNYNPSLSSRLSLSMDTSKNQFSLRLSSVTAADTATYYCARYARHFIRGPLSFDYWGRGTLVTVSS VL: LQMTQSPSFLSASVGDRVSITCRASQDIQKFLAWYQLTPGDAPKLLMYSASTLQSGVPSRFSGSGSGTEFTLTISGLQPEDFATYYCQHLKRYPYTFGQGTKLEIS ?
Response: -1

Prompt: A record lists Fab m18 R100aA (HCDR3) (Fab, V domains shown) VH: VQLLESGPGVVKPSETLSLTCTVSGASVNNYYWTWVRQPPGKGLEWIGNVYDSGDTNYNPSLSSRLSLSMDTSKNQFSLRLSSVTAADTATYYCARYHRHFIAGPLSFDYWGRGTLVTVSS VL: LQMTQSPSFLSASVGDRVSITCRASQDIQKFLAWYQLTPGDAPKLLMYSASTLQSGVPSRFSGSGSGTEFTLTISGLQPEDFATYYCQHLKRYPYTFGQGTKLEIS . Is its koff below 0.0002 s⁻¹?
Response: 1

Prompt: Lab note: koff threshold 0.0002 s⁻¹. Does this binder come in strictly under it? Fab m18 F99A (HCDR3) (Fab, V domains shown) VH: VQLLESGPGVVKPSETLSLTCTVSGASVNNYYWTWVRQPPGKGLEWIGNVYDSGDTNYNPSLSSRLSLSMDTSKNQFSLRLSSVTAADTATYYCARYHRHAIRGPLSFDYWGRGTLVTVSS VL: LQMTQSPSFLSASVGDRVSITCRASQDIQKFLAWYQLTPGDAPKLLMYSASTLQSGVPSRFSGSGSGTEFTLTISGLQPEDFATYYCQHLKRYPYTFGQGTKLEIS
Response: -1
